- Target Or Test System: His-EBNA1 (DNA binding domain of EBNA1, amino acids 459-607) (Epstein-Barr virus, UniProt P03211)
- Construct: made in house; host or cells: E. coli
- Sequence (P03211 459-607): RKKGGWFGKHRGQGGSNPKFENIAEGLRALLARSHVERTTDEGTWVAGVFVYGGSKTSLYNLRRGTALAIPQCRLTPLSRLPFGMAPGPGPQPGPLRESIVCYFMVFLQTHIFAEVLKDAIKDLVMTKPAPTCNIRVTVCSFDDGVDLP
- Protocol Details: Inhibition of 5'-biotin-oPL4624 binding to His-EBNA1 using Alpha Screen technology
- Procedure: Inhibition of 5′-Biotin-oPL4624 Binding to his-EBNA1 Using Alpha Screen Technology […] Assays contained 15 nM His-EBNA1, 0.2 nM bt-oPL4624, 5 μg/mL AlphaScreen streptavidin donor beads and nickel chelate acceptor beads, and a series of concentrations of test compound ranging from 3.2 nM to 100 μM in a total volume of 40 μL assay buffer (25 mM Tris, pH 7.2, 160 mM NaCl, 1 mM MgCl2). […] Non-specific binding was determined with 5 μg/mL AlphaScreen acceptor bead in the absence of His-EBNA1. […]
pIC50: −log10 of the molar value.
Test Readout: pIC50

[[record]]
compound = "CN1CCCN(Cc2ccc(C#Cc3cccc(C(=O)O)c3-c3ccc4cc[nH]c4c3)cc2)CC1"
test_readout = "pIC50"
recorded_measurement = "5.00 to 6.00"

[[record]]
compound = "O=C(O)c1cccc(C#Cc2ccc3c(ccn3CCN3CCOCC3)c2)c1-c1ccc2cc[nH]c2c1"
test_readout = "pIC50"
recorded_measurement = "4.00 to 5.00"

[[record]]
compound = "CN(C)C(=O)N1CCN(Cc2ccc(C#Cc3cccc(C(=O)O)c3-c3ccc4cc[nH]c4c3)cc2)CC1"
test_readout = "pIC50"
recorded_measurement = "4.00 to 5.00"

[[record]]
compound = "CN1CCN(C(=O)c2ccc(C#Cc3cccc(C(=O)O)c3-c3ccc4cc[nH]c4c3)cc2)CC1"
test_readout = "pIC50"
recorded_measurement = "4.00 to 5.00"

[[record]]
compound = "COc1cc(C#Cc2cccc(C(=O)O)c2-c2ccc3cc[nH]c3c2)ccc1CN1CCC(N2CCOCC2)CC1"
test_readout = "pIC50"
recorded_measurement = "3.00 to 4.00"

[[record]]
compound = "COc1cccc(OCc2ccc(C#Cc3cccc(C(=O)O)c3-c3ccc4cc[nH]c4c3)cc2)c1"
test_readout = "pIC50"
recorded_measurement = "5.00 to 6.00"

[[record]]
compound = "COC1CCN(Cc2nc(=O)c3cc(C#Cc4cccc(C(=O)O)c4-c4ccc5cc[nH]c5c4)ccc3[nH]2)CC1"
test_readout = "pIC50"
recorded_measurement = "4.00 to 5.00"

[[record]]
compound = "CS(=O)(=O)N1CCc2ccc(C#Cc3cccc(C(=O)O)c3-c3ccc4cc[nH]c4c3)cc2C1"
test_readout = "pIC50"
recorded_measurement = "5.00 to 6.00"

[[record]]
compound = "O=C(O)c1cccc(C#Cc2ccc3ccn(CCCN4CCS(=O)(=O)CC4)c3c2)c1-c1ccc2cc[nH]c2c1"
test_readout = "pIC50"
recorded_measurement = "5.00 to 6.00"

[[record]]
compound = "O=C(O)c1cccc(C#Cc2ccc(C3(CO)COC3)cc2)c1-c1ccc2cc[nH]c2c1"
test_readout = "pIC50"
recorded_measurement = "5.00 to 6.00"

[[record]]
compound = "O=C1CCC(C(=O)NCc2ccc(C#Cc3cccc(C(=O)O)c3-c3ccc4cc[nH]c4c3)cc2)CC1"
test_readout = "pIC50"
recorded_measurement = "> 6.00"

[[record]]
compound = "CS(=O)(=O)c1ccccc1OCc1ccc(C#Cc2cccc(C(=O)O)c2-c2ccc3cc[nH]c3c2)cc1"
test_readout = "pIC50"
recorded_measurement = "5.00 to 6.00"

[[record]]
compound = "O=C(O)c1cccc(C#Cc2cc3c(CN4CCOCC4)c[nH]c3cc2F)c1-c1ccc2cc[nH]c2c1"
test_readout = "pIC50"
recorded_measurement = "4.00 to 5.00"

[[record]]
compound = "O=C(O)c1cccc(C#Cc2ccc(-c3cnco3)cc2)c1-c1ccc2cc[nH]c2c1"
test_readout = "pIC50"
recorded_measurement = "5.00 to 6.00"

[[record]]
compound = "CS(=O)(=O)N1CCC(CN2Cc3ccc(C#Cc4cccc(C(=O)O)c4-c4ccc5cc[nH]c5c4)cc3C2)C1 (stereo not drawn)"
test_readout = "pIC50"
recorded_measurement = "5.00 to 6.00"

